assay: Oral bioavailability in Beagle dog at 3 mg/kg after 6 to 24 hrs by LC-MS/MS analysis; format: ADME, organism-based, Canis lupus familiaris; conditions: in vivo
reportedMetric: bioavailability (%)

[[record]]
molecule = "C[C@@H]1CCCN1CCCOc1ccc(-c2ccc(=O)[nH]n2)cc1.Cl [IRDABISANT HYDROCHLORIDE]"
quantitativereadout = 22


====

experiment: Clearance in cynomolgus monkey at 1 mg/kg, iv after 6 to 24 hrs by LC-MS/MS analysis; type: ADME, organism-based, Macaca fascicularis; design: dose 1 mg/kg, route intravenous; conditions: in vivo
reportedMetric: clearance (L/h/kg)

[[record]]
compound = "C[C@@H]1CCCN1CCCOc1ccc(-c2ccc(=O)[nH]n2)cc1.Cl [IRDABISANT HYDROCHLORIDE]"
u = "L/h/kg"
quantitativereadout = 0.462


====

test: Metabolic stability of compound in human liver microsomes assessed as half life; format: ADME, Microsome
reportedMetric: half-life

[[record]]
compound = "C[C@@H]1CCCN1CCCOc1ccc(-c2ccc(=O)[nH]n2)cc1.Cl [IRDABISANT HYDROCHLORIDE]"
reportedmetric = "half-life"
result = "> 40 min"


====

Readings of IC50 for the listed molecules
molecular target: Voltage-gated inwardly rectifying potassium channel KCNH2 (Homo sapiens, UniProt Q12809); assay: Inhibition of recombinant human ERG channel expressed in human HEK 293 cells by patch clamp assay; type: cell-based, HEK293
Sequence (Q12809 whole entry): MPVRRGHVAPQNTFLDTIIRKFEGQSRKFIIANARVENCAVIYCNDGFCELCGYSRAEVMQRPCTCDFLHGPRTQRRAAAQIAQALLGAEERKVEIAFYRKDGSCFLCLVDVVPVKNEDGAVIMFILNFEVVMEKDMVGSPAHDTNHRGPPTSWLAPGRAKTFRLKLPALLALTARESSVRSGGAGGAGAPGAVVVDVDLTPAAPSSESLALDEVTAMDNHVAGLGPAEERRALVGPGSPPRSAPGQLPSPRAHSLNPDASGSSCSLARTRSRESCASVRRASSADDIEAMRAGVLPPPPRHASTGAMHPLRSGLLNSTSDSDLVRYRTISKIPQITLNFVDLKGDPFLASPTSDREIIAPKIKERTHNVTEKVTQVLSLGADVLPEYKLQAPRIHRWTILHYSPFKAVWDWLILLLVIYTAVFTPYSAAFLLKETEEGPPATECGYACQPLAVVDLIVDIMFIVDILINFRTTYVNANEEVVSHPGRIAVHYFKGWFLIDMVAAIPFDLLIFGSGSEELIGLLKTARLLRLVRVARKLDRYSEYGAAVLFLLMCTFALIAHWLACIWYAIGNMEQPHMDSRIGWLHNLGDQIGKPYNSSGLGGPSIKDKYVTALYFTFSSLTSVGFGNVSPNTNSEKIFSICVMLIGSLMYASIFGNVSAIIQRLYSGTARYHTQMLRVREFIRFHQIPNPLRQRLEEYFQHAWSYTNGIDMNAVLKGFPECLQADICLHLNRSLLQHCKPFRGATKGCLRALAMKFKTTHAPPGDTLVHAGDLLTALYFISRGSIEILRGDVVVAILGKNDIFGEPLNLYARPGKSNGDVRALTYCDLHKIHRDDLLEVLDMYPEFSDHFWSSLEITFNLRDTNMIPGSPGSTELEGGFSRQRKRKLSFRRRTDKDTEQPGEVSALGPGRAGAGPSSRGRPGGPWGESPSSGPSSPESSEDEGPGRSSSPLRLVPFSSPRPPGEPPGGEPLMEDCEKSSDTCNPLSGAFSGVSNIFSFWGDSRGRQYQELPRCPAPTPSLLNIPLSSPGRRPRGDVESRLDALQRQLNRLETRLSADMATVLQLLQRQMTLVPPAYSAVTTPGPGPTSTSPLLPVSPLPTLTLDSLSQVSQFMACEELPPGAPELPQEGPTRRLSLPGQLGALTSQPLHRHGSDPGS
reportedMetric: IC50 (µM)

[[record]]
chemsmiles = "C[C@@H]1CCCN1CCCOc1ccc(-c2cn[nH]c(=O)c2)cc1"
reportedmetric = "IC50"
quantitativereadout = 9.5

[[record]]
chemsmiles = "C[C@@H]1CCCN1CCCOc1ccc(-c2ccc(=O)n(C)n2)cc1"
reportedmetric = "IC50"
quantitativereadout = 13


====

experiment: Metabolic stability of compound in dog liver microsomes assessed as compound remaining at 40 mins; assay type: ADME, Canis lupus familiaris, Microsome; details: read-out: Stability
reportedMetric: remaining at 40 min

[[record]]
compound = "C[C@@H]1CCCN1CCCOc1ccc(-c2ccc(=O)[nH]n2)cc1.Cl [IRDABISANT HYDROCHLORIDE]"
result = "> 98%"


====

test: Aqueous solubility of the compound at pH 2; format: physicochemical
reportedMetric: solubility

[[record]]
compound = "C[C@@H]1CCCN1CCCOc1ccc(-c2ccc(=O)[nH]n2)cc1 [IRDABISANT]"
reportedmetric = "solubility"
result = "> 2000 µg/mL"


====

assay: AUC in cynomolgus monkey at 1 mg/kg, po after 6 to 24 hrs by LC-MS/MS analysis; assay type: ADME, organism-based, Macaca fascicularis; design: dose 1 mg/kg, route oral; details: plasma
reportedMetric: AUC (ng·h/mL)

[[record]]
compound = "C[C@@H]1CCCN1CCCOc1ccc(-c2ccc(=O)[nH]n2)cc1.Cl [IRDABISANT HYDROCHLORIDE]"
reportedmetric = "AUC"
u = "ng·h/mL"
quantitativereadout = 1920


====

assay: Cmax in cynomolgus monkey at 1 mg/kg, po after 6 to 24 hrs by LC-MS/MS analysis; format: ADME, organism-based, Macaca fascicularis; parameters: dose 1 mg/kg, route oral; conditions: in vivo
reportedMetric: Cmax

[[record]]
compound = "C[C@@H]1CCCN1CCCOc1ccc(-c2ccc(=O)[nH]n2)cc1.Cl [IRDABISANT HYDROCHLORIDE]"
result = "760 ng/mL"


====

target: Cytochrome P450 3A4 (Homo sapiens)
Sequence (P08684 whole entry): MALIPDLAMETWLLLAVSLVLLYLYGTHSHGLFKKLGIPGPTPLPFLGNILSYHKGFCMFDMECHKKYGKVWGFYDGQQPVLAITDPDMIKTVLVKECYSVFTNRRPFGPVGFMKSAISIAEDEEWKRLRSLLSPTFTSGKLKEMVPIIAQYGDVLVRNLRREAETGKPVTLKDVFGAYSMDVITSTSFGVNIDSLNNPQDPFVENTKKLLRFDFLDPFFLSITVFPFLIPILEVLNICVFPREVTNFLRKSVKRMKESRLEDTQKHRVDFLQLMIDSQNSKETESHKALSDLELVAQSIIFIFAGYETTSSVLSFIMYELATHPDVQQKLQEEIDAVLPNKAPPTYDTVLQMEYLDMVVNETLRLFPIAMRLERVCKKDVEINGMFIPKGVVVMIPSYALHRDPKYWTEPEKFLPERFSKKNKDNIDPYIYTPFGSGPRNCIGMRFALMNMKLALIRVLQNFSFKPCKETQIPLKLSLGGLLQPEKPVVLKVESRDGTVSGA
reportedMetric: IC50

[[record]]
molecule = "C[C@@H]1CCCN1CCCOc1ccc(-c2ccc(=O)[nH]n2)cc1.Cl [IRDABISANT HYDROCHLORIDE]"
reportedmetric = "IC50"
result = "> 30 µM"


====

assay: Terminal half life in Beagle dog at 1 mg/kg, iv after 6 to 24 hrs by LC-MS/MS analysis; assay type: ADME, organism-based, Canis lupus familiaris; parameters: dose 1 mg/kg, route intravenous; conditions: in vivo, read-out: beta t1/2 (converted)
reportedMetric: half-life (h)

[[record]]
compound = "C[C@@H]1CCCN1CCCOc1ccc(-c2ccc(=O)[nH]n2)cc1.Cl [IRDABISANT HYDROCHLORIDE]"
quantitativereadout = 2.9


====

assay: Apparent permeability across human Caco2 cell membrane; assay type: ADME, cell-based; conditions: Caco-2
reportedMetric: Papp (×10⁻⁶ cm/s)

[[record]]
molecule = "C[C@@H]1CCCN1CCCOc1ccc(-c2ccc(=O)[nH]n2)cc1 [IRDABISANT]"
quantitativereadout = 13.5


====

test: Volume of distribution in Beagle dog at 1 mg/kg, iv after 6 to 24 hrs by LC-MS/MS analysis; format: ADME, organism-based, Canis lupus familiaris; parameters: dose 1 mg/kg, route intravenous; details: in vivo
reportedMetric: Vd (L/kg)

[[record]]
molecule = "C[C@@H]1CCCN1CCCOc1ccc(-c2ccc(=O)[nH]n2)cc1.Cl [IRDABISANT HYDROCHLORIDE]"
reportedmetric = "Vd"
u = "L/kg"
quantitativereadout = 3.5


====

molecular target: UniProt:P33261; assay: Inhibition of CYP2C19; type: ADME
Sequence (P33261 whole entry): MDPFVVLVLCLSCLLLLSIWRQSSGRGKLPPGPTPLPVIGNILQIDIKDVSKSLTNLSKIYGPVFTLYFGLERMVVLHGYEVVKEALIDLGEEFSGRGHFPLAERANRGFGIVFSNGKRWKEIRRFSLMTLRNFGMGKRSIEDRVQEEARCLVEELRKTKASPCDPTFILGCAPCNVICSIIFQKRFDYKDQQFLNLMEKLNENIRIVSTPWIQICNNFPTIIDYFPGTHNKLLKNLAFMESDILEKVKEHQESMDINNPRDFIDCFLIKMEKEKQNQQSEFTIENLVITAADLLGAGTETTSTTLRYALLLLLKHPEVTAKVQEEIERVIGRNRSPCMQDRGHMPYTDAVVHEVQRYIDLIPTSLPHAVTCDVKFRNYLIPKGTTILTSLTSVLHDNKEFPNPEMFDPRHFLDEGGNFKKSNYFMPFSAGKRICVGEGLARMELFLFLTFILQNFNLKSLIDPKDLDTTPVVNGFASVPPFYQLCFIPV
pIC50: −log10 of the molar value.
reportedMetric: pIC50

[[record]]
molecule = "C[C@@H]1CCCN1CCCOc1ccc(-c2ccc(=O)[nH]n2)cc1.Cl [IRDABISANT HYDROCHLORIDE]"
result = "< 4.52"


====

Readings of pKi for the listed molecules
biological target: Histamine H3 receptor (Rattus norvegicus); experiment: Displacement of [3H]NAMH from rat histamine H3 receptor expressed in CHO cells; type: cell-based
Sequence (Q9QYN8 whole entry): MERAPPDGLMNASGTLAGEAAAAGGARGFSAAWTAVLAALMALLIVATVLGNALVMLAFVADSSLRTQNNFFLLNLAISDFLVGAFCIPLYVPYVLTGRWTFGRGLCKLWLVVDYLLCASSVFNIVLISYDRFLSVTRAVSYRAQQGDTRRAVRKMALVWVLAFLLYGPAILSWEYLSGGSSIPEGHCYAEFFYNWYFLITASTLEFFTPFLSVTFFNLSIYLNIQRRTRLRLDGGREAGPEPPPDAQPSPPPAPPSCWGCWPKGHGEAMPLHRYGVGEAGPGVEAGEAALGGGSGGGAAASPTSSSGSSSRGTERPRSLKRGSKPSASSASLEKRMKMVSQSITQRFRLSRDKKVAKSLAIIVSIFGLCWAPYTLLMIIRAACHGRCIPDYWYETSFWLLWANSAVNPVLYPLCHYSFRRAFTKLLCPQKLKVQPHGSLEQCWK
pKi: −log10 of the molar value.
reportedMetric: pKi

[[record]]
chemsmiles = "Cn1nc(-c2ccc(OCCCN3CCCCC3)cc2)ccc1=O"
quantitativereadout = 6.97

[[record]]
chemsmiles = "Cn1nc(-c2ccc(OCCCN3CCC[C@H]3CO)cc2)ccc1=O"
quantitativereadout = 7.32

[[record]]
chemsmiles = "C[C@@H]1CCCN1CCCOc1ccc(-c2ccc(=O)n(C)n2)cc1"
quantitativereadout = 8.20

[[record]]
chemsmiles = "C[C@@H]1CCCN1CCCOc1ccc(-n2ncccc2=O)cc1"
quantitativereadout = 6.46

[[record]]
chemsmiles = "CCn1nc(-c2ccc(OCCCN3CCC[C@H]3C)cc2)ccc1=O"
quantitativereadout = 7.96

[[record]]
chemsmiles = "O=c1ccc(-c2ccc(OCCCN3CCOCC3)cc2)n[nH]1"
quantitativereadout = 6.09

[[record]]
chemsmiles = "O=c1ccc(-c2ccc(OCCCN3CCCC3)cc2)n[nH]1"
quantitativereadout = 7.35

[[record]]
chemsmiles = "C[C@@H]1CCCN1CCCOc1ccc(-c2ccc(=O)n(-c3ccccc3)n2)cc1"
quantitativereadout = 8.10

[[record]]
chemsmiles = "C[C@@H]1CCCN1CCCOc1ccc(-c2cn[nH]c(=O)c2)cc1"
quantitativereadout = 8.07

[[record]]
chemsmiles = "C[C@H]1CCCN1CCCOc1ccc(-c2ccc(=O)[nH]n2)cc1"
quantitativereadout = 7.30

[[record]]
chemsmiles = "C[C@@H]1CCCN1CCCOc1ccc(-c2ccc(=O)n(Cc3ccccc3)n2)cc1"
quantitativereadout = 7.92


====

assay: Metabolic stability of compound in mouse liver microsomes assessed as half life; type: ADME, Microsome
reportedMetric: half-life

[[record]]
compound = "C[C@@H]1CCCN1CCCOc1ccc(-c2ccc(=O)[nH]n2)cc1.Cl [IRDABISANT HYDROCHLORIDE]"
result = "> 40 min"


====

assay: Plasma protein binding in human after 1 hr by LC/MS/MS analysis; type: ADME, cell-free; settings: read-out: PPB (converted)
reportedMetric: fraction unbound at 1 h

[[record]]
compound = "C[C@@H]1CCCN1CCCOc1ccc(-c2ccc(=O)[nH]n2)cc1.Cl [IRDABISANT HYDROCHLORIDE]"
reportedmetric = "fraction unbound at 1 h"
quantitativereadout = 0.56


====

assay: Bioavailability in fasted Sprague-Dawley rat at 1 mg/kg, iv after 6 to 24 hrs by LC-MS/MS analysis; format: ADME, organism-based; details: in vivo
reportedMetric: bioavailability

[[record]]
chemsmiles = "C[C@@H]1CCCN1CCc1cc2cc(-c3ccc(C#N)cc3)ccc2o1"
result = "> 18%"


====

assay: Metabolic stability of compound in rat liver microsomes assessed as half life; assay type: ADME, Microsome
reportedMetric: half-life

[[record]]
compound = "C[C@@H]1CCCN1CCCOc1ccc(-c2ccc(=O)[nH]n2)cc1.Cl [IRDABISANT HYDROCHLORIDE]"
result = "> 40 min"


====

assay: Metabolic stability of compound in dog liver microsomes assessed as half life; format: ADME, Canis lupus familiaris, Microsome
reportedMetric: half-life

[[record]]
compound = "C[C@@H]1CCCN1CCCOc1ccc(-c2ccc(=O)[nH]n2)cc1.Cl [IRDABISANT HYDROCHLORIDE]"
result = "> 40 min"

